Biological target: Oxysterols receptor LXR-beta (Homo sapiens)
Assay: LXR agonists, Gal4 luciferase reporter, confirmation, counter-screen for hcDAF-12 agonist project, cell-based, luminescence, HEK293, H. contortus campaign (AID 743027)
Conditions: HEK293 Gal4-LXR tk-luc reporter, 24 h, at 6.8 µM, hits give high values, normalized: DMSO 0%, positive control 100%
The other results are listed elsewhere or left out.
outcome_measure: activation (%)
Answers are plain numbers, in %.

// below: answered compounds
Cc1ccc(SCCSc2ncccn2)cc1 | 1.19
COc1ccc(C(=O)C[n+]2ccc(C)cc2)cc1 | -0.34
O=C(Nc1ccn(Cc2ccccc2)n1)c1cccc(F)c1 | 1.66
CC(=O)Nc1cccc(-c2csc(Nc3cccc(C)n3)n2)c1 | 1.08
CCS(=O)(=O)c1cc([N+](=O)[O-])c(Sc2ccccc2N)s1 | 0.38

Would you mind giving activation for every compound in the list below?
1. Brc1ccccc1C1N=C(c2ccccc2)NO1 (stereo not drawn)
2. Brc1ccc2nc(N3CCCC3)sc2c1
3. Cn1c(NC(=O)c2ccccc2)nc2ccccc21
4. OC(c1ccccc1)c1nc(-c2cnc3ccccc3c2)cs1 (stereo not drawn)

Response:
1. 1.08
2. 0.77
3. 1.51
4. 1.85

----------
Experiment: VP16 transactivation inhibitors, counter-screen for SRC1 inhibitor project, cell-based, luminescence, high throughput (AID 588824)
Settings: cell-based VP16 transactivation luciferase luminescence; at 3.6 µM
Active and inactive are the calls of the source. No stated cut-off is given here; in the data, active means inhibition above about 25%; inactive means the rest.
Return exactly one item of yes (1) = active, no (0) = inactive

// known answers, use as guide
COc1ccc(CCn2c(-c3ccco3)nc3ccccc3c2=O)cc1OC | no (0)
NS(=O)(=O)c1ccc(NC(=O)c2cccc3cc4ccccc4nc23)cc1 | no (0)
CN=c1scc(-c2cccs2)n1/N=C/c1ccccc1O | yes (1)
COc1ccc(CC(=O)Nc2cccc(S(=O)(=O)N3CCCCCC3)c2)cc1OC | yes (1)
CC(C)(C)n1ncc2c(=O)n(CC(=O)OCc3ccccc3)cnc21 | no (0)
Cc1noc(/C=C/c2ccccn2)c1[N+](=O)[O-] | yes (1)

Shifting focus to the molecule that follows.
Query: Record lookup: outcome of this test for CCN1/C(=C/C=C/c2oc3ccc(-c4ccccc4)cc3[n+]2CC)Oc2ccc(-c3ccccc3)cc21 ?
Response: yes (1)

----------
Biological target: Nuclear receptor coactivator 2 (Homo sapiens)
Experiment: SRC2 coactivator transcriptional activity inhibitors, confirmation, cell-based, luminescence, HEK293, triplicate (AID 652008);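 further: 0% = DMSO-treated cells and 100% = Gossypol at 36 µM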
Conditions: HEK293 GAL4-SRC2 luciferase reporter, at 8.9 µM, hits give high values
Cut-off 20% on inhibition, inclusive. At or above means T; below means F.

// known answers, use as guide
CCCc1cc(=O)n2nc(N3CCC(C(=O)N4CCN(c5cccc(OC)c5)CC4)CC3)sc2n1 | F
COc1cc(S(=O)(=O)N(C)Cc2ccc3c(c2)OCCO3)ccc1NC(C)=O | F
C=CCOc1ccccc1CN1CCC(Cc2ccccc2)CC1 | F
Cc1cc(N2CCOCC2)c2c(N)cc(C)c(C)c2n1 | F
NCCCCCc1nnc(SCc2ccccc2Cl)o1 | T

Query: Quick check, inhibition >= 20%? Cc1c(C)n(Cc2ccccc2)c2ncnc(Cl)c12
Response: T

Query: Quick check, inhibition >= 20%? CN(C)S(=O)(=O)c1cccc(NC(=S)N/N=C/c2cc(Br)ccc2O)c1
Response: T

Query: Quick check, inhibition >= 20%? CC(=NCc1ccco1)c1c(C)[nH]n(-c2nc3ccccc3s2)c1=O
Response: F

Query: Quick check, inhibition >= 20%? Cc1ccc(Nc2nc(N)nc(CCl)n2)c(C)c1
Response: T

Query: Quick check, inhibition >= 20%? Cc1cc(=O)oc2cc(OC(C)C(=O)NCCc3ccc(S(N)(=O)=O)cc3)ccc12 (configuration not stated)
Response: F

Query: Quick check, inhibition >= 20%? COc1cc(/C=N/NC(=O)c2ccc(COc3cc(C)ccc3C(C)C)cc2)cc(OC)c1O
Response: T

Query: Quick check, inhibition >= 20%? O=C(NCCCN1CCN(c2ccccc2)CC1)C1CCCN(c2ncnc3c2nc2n3CCCCC2)C1 (configuration not stated)
Response: F

Query: Quick check, inhibition >= 20%? Cc1sc(NC(=O)CCCC(=O)O)c(C(N)=O)c1-c1ccccc1
Response: T

Query: Quick check, inhibition >= 20%? Nc1ccc(Oc2cccc(Oc3ccc(N)cc3)c2)cc1
Response: T

Query: Quick check, inhibition >= 20%? O=C(CSc1nc2[nH]c(=O)[nH]c(=O)c2s1)Nc1cccc(F)c1
Response: F

Query: Quick check, inhibition >= 20%? COc1cc(CNS(=O)(=O)c2ccc3c(c2)CC(C)N3C(=O)C2CCC2)cc(OC)c1OC (configuration not stated)
Response: T

Query: Quick check, inhibition >= 20%? COCC(C)n1c(C)cc(C(=O)COC(=O)c2cccn2C)c1C (configuration not stated)
Response: T

Query: Quick check, inhibition >= 20%? CC(C)(C)c1ccc(-c2noc(CCC(=O)NCc3ccco3)n2)cc1
Response: T

Query: Quick check, inhibition >= 20%? O=C(O)c1ccc(N/N=C/c2ccc3c(c2)OCO3)cc1
Response: T

Query: Quick check, inhibition >= 20%? Cc1ccc(C2=NN(C(=O)CCl)C(c3ccco3)C2)o1 (configuration not stated)
Response: T

Query: Quick check, inhibition >= 20%? CC(=O)c1ccc(OC2(C)CCN(Cc3ccc(OC(F)(F)F)cc3)C2)cc1 (configuration not stated)
Response: F

----------
Target: Nuclear receptor coactivator 3 (Homo sapiens) (UniProt Q9Y6Q9)
Sequence (Q9Y6Q9 whole entry, looked up): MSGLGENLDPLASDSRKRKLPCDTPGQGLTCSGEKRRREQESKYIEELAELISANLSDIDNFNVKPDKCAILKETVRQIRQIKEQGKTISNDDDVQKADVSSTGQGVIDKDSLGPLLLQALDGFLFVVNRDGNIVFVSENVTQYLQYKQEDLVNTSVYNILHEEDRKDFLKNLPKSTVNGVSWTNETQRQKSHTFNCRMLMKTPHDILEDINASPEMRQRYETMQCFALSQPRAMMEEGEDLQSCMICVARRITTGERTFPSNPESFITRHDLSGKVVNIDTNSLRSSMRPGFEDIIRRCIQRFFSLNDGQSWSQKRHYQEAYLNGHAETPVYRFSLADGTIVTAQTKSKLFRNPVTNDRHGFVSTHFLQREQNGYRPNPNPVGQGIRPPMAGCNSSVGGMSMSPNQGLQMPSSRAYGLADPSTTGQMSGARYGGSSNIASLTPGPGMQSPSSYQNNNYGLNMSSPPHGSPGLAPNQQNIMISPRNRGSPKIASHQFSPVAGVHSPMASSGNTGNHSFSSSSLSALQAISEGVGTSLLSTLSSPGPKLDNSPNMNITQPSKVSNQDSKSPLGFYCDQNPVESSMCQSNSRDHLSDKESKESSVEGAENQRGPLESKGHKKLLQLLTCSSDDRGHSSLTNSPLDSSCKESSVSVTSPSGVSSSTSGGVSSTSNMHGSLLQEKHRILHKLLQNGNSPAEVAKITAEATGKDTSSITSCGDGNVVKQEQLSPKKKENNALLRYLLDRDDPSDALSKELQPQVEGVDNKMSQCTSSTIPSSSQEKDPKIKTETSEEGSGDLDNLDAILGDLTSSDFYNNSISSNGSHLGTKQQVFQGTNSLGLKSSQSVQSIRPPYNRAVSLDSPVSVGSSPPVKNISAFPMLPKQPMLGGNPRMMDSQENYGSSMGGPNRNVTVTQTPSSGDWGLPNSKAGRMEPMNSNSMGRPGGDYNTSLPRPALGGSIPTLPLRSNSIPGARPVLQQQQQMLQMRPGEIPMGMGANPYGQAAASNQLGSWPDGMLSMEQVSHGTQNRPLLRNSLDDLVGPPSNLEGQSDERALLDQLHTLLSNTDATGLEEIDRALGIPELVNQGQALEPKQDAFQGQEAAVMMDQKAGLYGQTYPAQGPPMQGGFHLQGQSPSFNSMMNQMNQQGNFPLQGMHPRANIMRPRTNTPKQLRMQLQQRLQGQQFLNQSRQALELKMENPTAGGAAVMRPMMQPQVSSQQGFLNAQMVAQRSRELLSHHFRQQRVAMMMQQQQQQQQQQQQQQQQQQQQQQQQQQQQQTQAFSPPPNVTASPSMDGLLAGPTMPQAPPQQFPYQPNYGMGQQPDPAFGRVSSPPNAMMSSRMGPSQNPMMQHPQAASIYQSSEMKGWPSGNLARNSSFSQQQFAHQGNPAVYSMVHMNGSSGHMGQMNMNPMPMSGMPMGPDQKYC
Assay: SRC3 coactivator transcriptional activity inhibitors, confirmation, cell-based, luminescence, quadruplicate (AID 588792);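 further: 0% = DMSO treated cells and 100% = gossypol at 36 µM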
Settings: HEK293 GAL4-SRC3 luciferase reporter, at 3.6 µM
Calls of active or inactive are those of the source.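 The calls were made as follows: active = mean inhibition over 43.08%, the solvent-only control mean plus 3 SD; inactive = the rest.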
Return exactly one item of label 1 for active, label 0 for inactive

CCCn1c(C)cc(C(=O)COc2ccc(C)nc2[N+](=O)[O-])c1C | label 0
Cc1ccc(C(=O)NNC(=O)CCCN2C(=O)/C(=C/c3ccccc3Cl)SC2=S)cc1 | label 0
Cc1ccc(C)c(NC(=O)c2ccccc2NS(=O)(=O)c2cc([N+](=O)[O-])ccc2C)c1 | label 0
O=C(Nc1ccc(OCC(=O)N2CCOCC2)cc1)c1cncc(Br)c1 | label 0
CC(C)(C)C(=O)/C(=C/c1ccncc1)n1cncn1 | label 1
CC(=NNC(=O)c1ccncc1)c1ccc2ccccc2c1O | label 1
CCOc1ccc(/C=C/C(O)=C2/C(=O)NC3(C)CC2c2ccccc2O3)cc1OC (stereo not drawn) | label 0
CC1CCc2nc(NC(=O)C3COc4ccccc4O3)sc2C1 (stereo not drawn) | label 0
COc1ccc(N2CCN(c3nc(NCCc4ccc(OC)c(OC)c4)nc(OC)n3)CC2)cc1 | label 0
Clc1ccc(-n2ncc3c(N4CCCCCC4)ncnc32)cc1 | label 1

Query: Record lookup: outcome of this test for COc1ccc(NS(=O)(=O)c2ccc(NC(=O)c3ccc(N(C)S(C)(=O)=O)cc3)cc2)c(OC)c1 ?
Response: label 0

Query: Record lookup: outcome of this test for O=C1C(Nc2ccccc2)=C(N2CCCCC2)C(=O)c2ccccc21 ?
Response: label 0

Query: Record lookup: outcome of this test for c1ccc2c(c1)OCC(CNc1ncnc3sccc13)O2 (stereo not drawn) ?
Response: label 0

----------
Experiment: StAR promoter reporter inhibitors, counter-screen for LRH-1 inverse agonist project, cell-based, luminescence, high throughput (AID 651611)
Details: StAR promoter luciferase reporter counterscreen, at 3.6 µM, hits give high values
Active and inactive are the calls of the source. Cut-off read from the data, not from the text of the source: active = inhibition above about 28%; inactive = the rest. Numbered stars: 1 amine (or outer) side, 2 acyl side, 3 side chain; on linkers, the order of the positions; unused ones are H or OH. Bridge positions count the residues as written; N and C are the ends. Square brackets hold non-standard residues; d marks the D form. Peptide text beside a SMILES is read from it. ξ: configuration not given here. X1 = CC[C@H](CCC[C@@H](O)[C@@H](C)C(=O)O[C@H](C)[C@@H](C)C/C=C(C)/C(=C\C(=O)[*:1])OC)O[*:2]; NMeξIle = CC[C@H](C)C(NC)C(=O)O; NMeV = CN[C@H](C(=O)O)C(C)C; NMeS = CN[C@@H](CO)C(=O)O
Consider the following compounds; for each one, report its inhibition.

// below: answered compounds
NC(=O)c1cc([N+](=O)[O-])ccc1NCc1ccc(O)cc1 | 48.6% (active)
CC[C@@H]1CCC[C@@H](O)[C@@H](C)C(=O)O[C@H](C)[C@@H](C)C/C=C(C)/C(OC)=C\C(=O)N(C)C([C@@H](C)CC)C(=O)N(C)[C@@H](C(C)C)C(=O)N(C)[C@@H](COC)C(=O)N2CCC[C@H]2C(=O)N(C)[C@@H](C(C)C)C(=O)N2CCC[C@H]2C(=O)O1 (stereo partly drawn) ([NMeξIle][NMeV][NMeS](Me)P[NMeV]P; linker N-C via X1) | 83% (active)

Query: Return the recorded inhibition value; entry: COc1ccccc1-c1nnc(Sc2nc([N+](=O)[O-])nn2C)o1
Response: 59.9% (active)

Source of measurements: PubChem BioAssay
